MEASUREMENT TARGET: ATP-dependent DNA helicase Q1 (Homo sapiens)
ASSAY METHOD TEXT: qHTS Assay for Inhibitors of RecQ-Like Dna Helicase 1 (RECQ1); also: nearly all actives have a fitted effect of over 30% in size; also: potency is read from the fitted curve at half-maximal effect
TEST SETTINGS: RECQ1 DNA unwinding, red fluorescence kinetic read; series mostly up to 57.3 µM
About 1,300 (0.54%) of roughly 240,000 compounds were called active. Roughly 1% stayed inconclusive and do not appear here. Only a selection was taken, and actives are over-represented in it overall.
ASSAY READOUT: Potency

- COc1cccc(N2C(=O)NC(=O)/C(=C\c3ccc([N+](=O)[O-])s3)C2=O)c1: 22.4 µM (active)
- N#CC(C#N)=Cc1cc(O)c(O)c([N+](=O)[O-])c1: 31.6 µM (active)
- CC(C)(Cc1c[nH]c2ccc(Cl)cc12)NCCOc1ccccc1OCC1CC1: inactive
- ClCCBr: inactive
- CC(C)(C)c1ccc(CN2C(=O)CN=C(c3ccccc3)c3ccccc32)cc1: inactive
- CCN(CC)c1nc(C)cc(OP(=S)(OC)OC)n1: inactive
- O=C(CN1CCCC1=O)NCCc1ccccc1: inactive
- CC(=O)[O][Sn]([c]1ccccc1)([c]1ccccc1)[c]1ccccc1: inactive
- COc1ccc2[nH]cc(CCNCc3ccc(Br)cc3)c2c1: inactive
- O=C1NC(=O)N(Cc2ccco2)C(=O)/C1=C\c1ccc(-c2ccc(F)cc2)o1: 25.1 µM (active)
- CC(C)(C)C(O)(CCc1ccc(Cl)cc1)Cn1cncn1 (stereo unspecified): inactive

Cited source for all entries: PubChem BioAssay AID2549
